Molecular target: T1, human CD20 (human, UniProt P11836 1-297)
T1 sequence (looked up): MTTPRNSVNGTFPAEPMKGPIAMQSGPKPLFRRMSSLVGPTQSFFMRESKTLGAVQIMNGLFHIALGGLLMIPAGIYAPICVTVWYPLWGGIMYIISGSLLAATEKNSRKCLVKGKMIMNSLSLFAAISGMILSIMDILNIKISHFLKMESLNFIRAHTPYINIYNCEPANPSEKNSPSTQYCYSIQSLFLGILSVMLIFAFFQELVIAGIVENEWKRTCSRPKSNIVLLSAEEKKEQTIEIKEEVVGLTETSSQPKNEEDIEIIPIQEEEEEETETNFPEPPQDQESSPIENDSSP
Assay: cell-based or functional assay
For each of the binders below, state its LogEC50, complement dependent cytotoxicity (CDC) on Raji cells.
One number for each entry.

| binder | numeric.result |
| --- | --- |
| 1F5RHA x 1F5RKF12 (antibody, human IgG1, kappa, V domains shown, also called RHA x RKF12; 1F5RKF12 x 1F5RHA) VH: QVQLVQSGAEVKKPGASVKVSCKASGYTFTSYNMHWVRQAPGQRLEWIGAIYPGNGDTSYNQKFKGRVTVTRDTSANTAYMELSSLKSEDTAVYYCARSHYGSNYVDYFDYWGQGTLVTVSS VL: EIVLTQSPGTLSLSPGERATLSCRASSSLSFMHWYQQKPGQAPRPLIYATSNLASGIPARFSGSGSGTDFTLTISRLEPEDFAVYFCHQWSSNPLTFGQGTKVELKR | -1.15 |
| chimeric antibody c1F5 (c1F5VH x c1F5VK) (antibody, human IgG1, kappa, V domains shown, Mouse 1F5 variable regions on human gamma1 / kappa constant regions; also called chimeric 1F5) VH: QVQLRQPGAELVKPGASVKMSCKASGYTFTSYNMHWVKQTPGQGLEWIGAIYPGNGDTSYNQKFKGKATLTADKSSSTAYMQLSSLTSEDSAVYYCARSHYGSNYVDYFDYWGQGTLVTVST VL: QIVLSQSPAILSASPGEKVTMTCRASSSLSFMHWYQQKPGSSPKPWIYATSNLASGVPARFSGSGSGTSYSLTISRVEAEDAATYFCHQWSSNPLTFGAGTKVEIKR | -0.781 |

-- ask What does the record list as LogEC50, complement dependent cytotoxicity (CDC) on Raji cells for 1F5RHA x 1F5RKB12 (antibody, human IgG1, kappa, V domains shown, also called RHA x RKB12; Variant F) VH: QVQLVQSGAEVKKPGASVKVSCKASGYTFTSYNMHWVRQAPGQRLEWIGAIYPGNGDTSYNQKFKGRVTVTRDTSANTAYMELSSLKSEDTAVYYCARSHYGSNYVDYFDYWGQGTLVTVSS VL: EIVLTQSPGTLSLSPGERATLSCRASSSLSFMHWYQQKPGQAPRPWIYATSNLASGIPARFSGSGSGTDYTLTISRLEPEDFAVYFCHQWSSNPLTFGQGTKVELKR ?
-- reply -1.13

From: patent US20100303808A1
